All values here come from PubChem BioAssay (NCI).

system: SF-295 CNS; assay: NCI tumour cell line growth inhibition, 48 h
Item-by-item account of TGI
Just the number please, in µM, no unit attached.

Reference set, count: 3
[[record]]
compound = "Oc1c(Cl)cc(Cl)c(Cl)c1Cc1c(O)c(Cl)cc(Cl)c1Cl"
observed_measurement = 2.05

[[record]]
compound = "COc1ccc(C(=O)C(c2ccc(OC)cc2)C2(O)C(=O)Nc3c(Cl)cc(Cl)cc32)cc1 (stereo not given)"
observed_measurement = 39.9

[[record]]
compound = "N=C1C(c2nc3ccccc3c(=O)[nH]2)=C(O)CN1c1cccc(Cl)c1"
observed_measurement = 17.8


Report the value of TGI obtained on SF-295 CNS for CC(=O)OC1CCn2c1nc1c2C(=O)C=C(N2CC2)C1=O (stereo not given) .
5.61

Report the value of TGI obtained on SF-295 CNS for COc1ccc(C[C@@H]2OC3(C=CC(=O)CC3Sc3ccccc3)O[C@H]2Cc2ccc(OC)cc2)cc1 (stereo not given in full) .
4.69

Report the value of TGI obtained on SF-295 CNS for O=C1C=C(Nc2cc(Cl)ccc2Cl)c2ccccc2C1=O .
79.3

Report the value of TGI obtained on SF-295 CNS for NN/C(=N\S(=O)(=O)c1cc(S(=O)(=O)c2ccccc2)cs1)Nc1ccc(Cl)cc1 .
75.5

Report the value of TGI obtained on SF-295 CNS for O=C(CCl)N1CCN(c2ccccc2)CC1 .
36.2

Report the value of TGI obtained on SF-295 CNS for CN1CCN(CCCCCOc2cc(O)c3c(=O)cc(-c4ccccc4)oc3c2)CC1 .
4.16

----------
test system: HT29 colon; experiment: NCI tumour cell line growth inhibition, 48 h
Item-by-item account of TGI

Reference set, count: 5
[[record]]
compound = "Cc1c(N)c(C#N)c2n(C)c3ncccc3n2c1=O"
observed_measurement = "> 100 µM"

[[record]]
compound = "COC1=CC(=O)C2=C(C1=O)[C@H]1CC[C@]3(C)C(=O)CC[C@H]3[C@@H]1CC2"
observed_measurement = "75.3 µM"

[[record]]
compound = "CC1=C(C)C2(C#N)C(=O)N3C(=NC(c4ccco4)NC3c3ccco3)C2(C#N)C(c2ccco2)N1 (centres undefined)"
observed_measurement = "> 100 µM"

[[record]]
compound = "COc1ccc(/C(=N/Nc2nc3ccccc3n2Cc2ccccc2)C(=O)O)cc1"
observed_measurement = "> 100 µM"

[[record]]
compound = "CCN(CC)CCC(=O)c1ccc(Cl)c(Cl)c1"
observed_measurement = "> 100 µM"


Given the compound CCCCCCCCCCCCCCCC(=O)OCC1OC(OCCCC)[C@H](O[C@@H]2OC(C)C(OC(=O)CCC)C(O)C2O)C(O)C1O (some centres undefined) , write its reported TGI.
38.7 µM

Given the compound C=C1[C@@H](OC(C)=O)/C=C/C2C3C(=O)[C@@](C)(OC(C)=O)[C@H]([C@H](OC(C)=O)[C@]4(O)[C@@H](C)C(=O)O[C@H]4[C@H]1Cl)[C@@]23C (some centres undefined) , write its reported TGI.
> 100 µM

Given the compound C/C(=N\O)C1CC(CC(=O)O)C1(C)C (centres undefined) , write its reported TGI.
> 100 µM

Given the compound CN1C(=O)C(O)CC1c1ccccc1F (centres undefined) , write its reported TGI.
> 100 µM

Given the compound Cc1[nH]c2ccccc2c1/C=C/c1c(C)[nH]c2ccccc12 , write its reported TGI.
> 100 µM

Given the compound CC12CCC(=O)N1[C@@H](c1ccccc1)[C@@H](c1ccccc1)O2 (some centres undefined) , write its reported TGI.
> 100 µM

Given the compound O=c1c2c3c(sc2nc2n1sc1nc4sc5c(c4c(=O)n12)CCCC5)CCCC3 , write its reported TGI.
> 58.8 µM

Given the compound O=[N+]([O-])c1ccc(C2=NOC(c3ccccc3)N2C23CC4CC(CC(C4)C2)C3)cc1 (centres undefined) , write its reported TGI.
44.6 µM

Given the compound CCc1cccc(C(C)C)c1NC(=O)C(=O)Nn1c(=S)[nH]c2ccccc2c1=O , write its reported TGI.
> 100 µM

Given the compound c1ccc(CN2C3C4N(Cc5ccccc5)C2C2N(Cc5ccccc5)C(C(N2Cc2ccccc2)N4Cc2ccccc2)N3Cc2ccccc2)cc1 , write its reported TGI.
> 100 µM

Given the compound CCCCNC(=O)CC1=C(C)/C(=C/c2[nH]c(-c3ccc[nH]3)cc2OC)N=C1C , write its reported TGI.
11.1 µM

Given the compound CN1C(=O)[C@@H](CC2CCCC2)N(C2CCCC2)c2nc(Nc3cc(Cl)c(O)c(Cl)c3)ncc21 , write its reported TGI.
88.3 µM

Given the compound COc1ccc(-c2cc(-c3ccc(Cl)cc3)nc(SCCCC(=O)NO)n2)cc1OC , write its reported TGI.
> 26 µM

Given the compound OCC1NC(CO)C(O)C1O (centres undefined) , write its reported TGI.
> 100 µM

Given the compound C[C@H]1[C@H]2[C@H](C[C@@]3(C)C4=CC[C@H]5C(C)(C)[C@@H](OC6OCC(O)C(O)C6O)CC[C@@]56C[C@@]46CC[C@]23C)O[C@@]2(O)[C@@H]1OC(C)(C)[C@H]2O (some centres undefined) , write its reported TGI.
8.97 µM

Given the compound Cc1cc(NS(=O)(=O)c2ccc(-c3cnc(C4CC4)o3)cc2)ccc1Cl , write its reported TGI.
3.89 µM

Given the compound N#Cc1ncc(-c2ccc(C(F)(F)F)cc2)c(NC2CCCCCC2)n1 , write its reported TGI.
> 100 µM

Given the compound O=C(Nc1ccc(C(F)(F)F)cc1[N+](=O)[O-])C(=O)Nn1c(=S)[nH]c2ccccc2c1=O , write its reported TGI.
> 100 µM
